target: Oxytocin receptor (Homo sapiens); experiment: human OXTR agonists, confirmation, fluorescence, CHO-OTR cells, triplicate (AID 434963); settings: Fluo-8 calcium fluorescence, agonist, at 3 µM;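 also: peak over minimum fluorescence ratio per well during a 100 second FLIPR read; 0% = DMSO alone and 100% = oxytocin high control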
The list shows a part of the results. Calls of active or inactive are those of the source.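 The calls were made as follows: active = mean activation above about 20% derived from the earlier single-dose screen (limit read from the data); inactive = the rest.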
Labels: 1.0 = active, 0.0 = inactive

compound	class
CC1=CC2=NC(=O)/C(=C/c3coc4ccccc4c3=O)C(=N)N2O1	1.0
c1ccc(C2CNCc3c2ccc2ccccc32)cc1 (stereo not given)	0.0
O=C(NNC(=S)NC(=O)c1cn(-c2ccccc2)nc1-c1ccccc1)c1ccncc1	0.0
C/C(=N\NS(=O)(=O)c1ccc(Cl)cc1)c1ccc(NC(=O)c2ccco2)cc1	0.0
COc1cc(C(CCN2CCN(c3ccccc3)CC2)c2c(OC)cc(OC)c3ccc(=O)oc23)cc(OC)c1OC (stereo not given)	0.0
O=C(NC(Nc1nc2ccc([N+](=O)[O-])cc2s1)(C(F)(F)F)C(F)(F)F)c1ccccc1	0.0
N#C/C(=C/c1ccc(N2CCCCC2)o1)C(=O)NCCc1c[nH]c2ccccc12	1.0
O=C(c1ccco1)N1CCN(C(=O)C2CC(c3ccc(F)cc3)=NO2)CC1 (stereo not given)	0.0
COc1ccc(Cl)cc1NC(=O)NCC1CCN(Cc2ccccc2F)CC1	0.0
CCOc1ccc(Cn2nnc(C(=O)Nc3ccc(OC)cc3OC)c2N)cc1	0.0

* * *

target: Nuclear receptor coactivator 3 (Homo sapiens) (UniProt Q9Y6Q9); experiment: SRC3 coactivator transcriptional activity inhibitors, confirmation, cell-based, luminescence, quadruplicate (AID 588792); details: HEK293 GAL4-SRC3 luciferase reporter, at 3.6 µM;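 also: 0% = DMSO treated cells and 100% = gossypol at 36 µM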
Sequence (Q9Y6Q9 whole entry, looked up, the tested form may be a part): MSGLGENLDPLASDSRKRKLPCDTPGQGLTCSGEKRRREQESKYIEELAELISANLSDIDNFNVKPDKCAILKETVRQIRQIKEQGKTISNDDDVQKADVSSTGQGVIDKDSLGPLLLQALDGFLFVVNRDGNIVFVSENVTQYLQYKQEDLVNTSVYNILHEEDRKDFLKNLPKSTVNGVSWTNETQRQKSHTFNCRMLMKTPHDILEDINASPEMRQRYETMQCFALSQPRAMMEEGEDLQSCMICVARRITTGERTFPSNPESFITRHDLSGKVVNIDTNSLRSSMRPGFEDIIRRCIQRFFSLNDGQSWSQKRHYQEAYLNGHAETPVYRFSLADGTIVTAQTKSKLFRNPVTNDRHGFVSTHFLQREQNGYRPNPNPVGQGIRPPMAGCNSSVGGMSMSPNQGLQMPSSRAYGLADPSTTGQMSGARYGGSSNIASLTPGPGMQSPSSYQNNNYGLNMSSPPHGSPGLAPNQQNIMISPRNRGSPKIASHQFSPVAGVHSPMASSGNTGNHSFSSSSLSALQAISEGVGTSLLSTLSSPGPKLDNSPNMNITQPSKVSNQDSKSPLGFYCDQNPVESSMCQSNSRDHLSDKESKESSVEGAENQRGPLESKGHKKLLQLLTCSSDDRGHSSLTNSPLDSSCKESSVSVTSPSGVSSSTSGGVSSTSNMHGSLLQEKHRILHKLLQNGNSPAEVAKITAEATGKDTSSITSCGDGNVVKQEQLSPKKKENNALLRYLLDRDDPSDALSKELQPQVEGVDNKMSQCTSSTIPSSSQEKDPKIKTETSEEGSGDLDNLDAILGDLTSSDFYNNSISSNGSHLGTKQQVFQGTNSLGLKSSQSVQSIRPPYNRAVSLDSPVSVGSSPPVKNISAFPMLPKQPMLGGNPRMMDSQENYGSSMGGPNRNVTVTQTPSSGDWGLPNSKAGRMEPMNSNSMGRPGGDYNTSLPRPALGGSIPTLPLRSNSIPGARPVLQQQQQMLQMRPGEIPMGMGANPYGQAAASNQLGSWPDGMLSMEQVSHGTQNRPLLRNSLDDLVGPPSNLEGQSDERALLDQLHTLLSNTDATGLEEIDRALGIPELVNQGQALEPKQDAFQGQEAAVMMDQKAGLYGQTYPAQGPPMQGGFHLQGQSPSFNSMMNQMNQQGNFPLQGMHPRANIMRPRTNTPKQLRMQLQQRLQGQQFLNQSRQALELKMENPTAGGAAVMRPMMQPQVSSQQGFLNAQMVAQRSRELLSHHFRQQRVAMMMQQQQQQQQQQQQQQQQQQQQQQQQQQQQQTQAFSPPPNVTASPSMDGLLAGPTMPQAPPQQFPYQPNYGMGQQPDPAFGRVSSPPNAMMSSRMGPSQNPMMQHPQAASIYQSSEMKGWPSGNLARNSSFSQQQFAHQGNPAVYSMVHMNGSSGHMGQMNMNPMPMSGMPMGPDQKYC
Active and inactive are the calls of the source.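 Rule for the calls: active = mean inhibition over 43.08%, the solvent-only control mean plus 3 SD; inactive = the rest.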
Labels: Yes = active, No = inactive

compound	class
COc1ccc(NC(=O)c2sc(=O)n(Cc3ccccc3C#N)c2C)cc1OC	No
CC(C)(C)OC(=O)NCCCC[C@H](NC(=O)c1nc[nH]c1C(=O)N[C@@H](CCCCNC(=O)OC(C)(C)C)C(=O)OC(C)(C)C)C(=O)OC(C)(C)C	No
CCSc1nnc(NC(=O)C(CC)(C(F)(F)F)C(F)(F)F)s1	No
Cc1cc(SCC(=O)N/N=C/c2ccc(O)cc2O)c(C)cc1Br	No
CC1(Cc2ccc(Cl)cc2)C(=O)Nc2ccc(-c3cccnc3)cc21 (stereo unspecified)	Yes
NNC(=O)C(=O)Nc1ccc(O)cc1	No
O=C(COc1ccccc1O)NNc1ccccc1	No
CC(=O)Nc1nc(-c2ccc3c(c2)CC(C)N3C(=O)C2CC2)c(C)s1 (stereo unspecified)	Yes
CN(C)S(=O)(=O)c1cccc(-c2nn(-c3ccccc3)cc2/C=C(\C#N)c2nc3ccccc3[nH]2)c1	No
O=C(NNC(=O)c1cccnc1SCc1cccc([N+](=O)[O-])c1)c1ccccn1	No
Cc1cc(C(C)(C)C)cc(C)c1Cn1c2[n+](c3ccc(C(F)(F)F)cc31)CCCCC2	No
COc1ccc(-c2nc3c(c(SCC(=O)N4CCOCC4)n2)Cc2c(CO)cnc(C)c2O3)cc1	No
Brc1ccc(N=Nc2ccc3ccccc3n2)cc1	Yes
O=C(Nc1nc2ccccc2[nH]1)c1ccccc1F	No
CCOC(=O)c1c(C)c2c(=O)[nH]cnc2n1-c1ccccc1	Yes
COc1cccc(/C=N/Nc2ncnc(Cl)c2N)c1O	Yes
CC(C)CCNC(=O)C(c1ccncc1)N(Cc1cccs1)C(=O)Cn1nnc(-c2ccc(F)cc2)n1 (stereo unspecified)	Yes
O=C(NCc1cccnc1)/C(=C/c1ccc(-c2ccc(Cl)cc2)o1)S(=O)(=O)c1ccccc1	Yes
Cc1ccc(S(=O)(=O)NCC(=O)N(c2ccccc2)C(C(=O)NCc2ccccc2)c2ccco2)cc1 (stereo unspecified)	No
O=C(CCCN1C(=O)S/C(=C\c2ccccc2)C1=O)NNC(=O)c1ccccc1O	Yes
CC(=O)Nc1ccc(SCC(=O)c2cc(C)n(-c3ccccc3F)c2C)cc1	No

* * *

target: Peroxisome proliferator-activated receptor gamma (Homo sapiens) (UniProt P37231); assay: PPARgamma agonists recruiting SRC-1 coactivator, confirmation, biochemical (AID 1300); conditions: PPARgamma–SRC-1 coactivator recruitment biochemical assay; at 8 µM;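 also: 0% = vehicle wells and 100% = reference agonist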
Sequence (P37231 whole entry, looked up): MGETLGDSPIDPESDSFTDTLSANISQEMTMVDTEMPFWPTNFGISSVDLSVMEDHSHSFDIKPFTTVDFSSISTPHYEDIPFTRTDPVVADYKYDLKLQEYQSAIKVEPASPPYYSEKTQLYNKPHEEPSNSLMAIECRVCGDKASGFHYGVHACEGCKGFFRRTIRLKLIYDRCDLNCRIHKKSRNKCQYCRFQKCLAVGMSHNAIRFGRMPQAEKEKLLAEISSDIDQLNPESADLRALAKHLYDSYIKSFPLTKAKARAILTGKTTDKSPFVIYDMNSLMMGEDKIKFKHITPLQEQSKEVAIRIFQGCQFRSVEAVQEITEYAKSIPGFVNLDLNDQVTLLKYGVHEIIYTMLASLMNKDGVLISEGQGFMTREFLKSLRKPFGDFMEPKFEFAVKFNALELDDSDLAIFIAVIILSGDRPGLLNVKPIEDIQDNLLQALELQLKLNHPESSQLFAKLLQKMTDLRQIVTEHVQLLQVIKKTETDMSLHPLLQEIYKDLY
The other results are listed elsewhere or left out. Activity calls are given as the source filed them. Cut-off read from the data, not from the text of the source: active = activation above about 20%; inactive = the rest.
Labels: True = active, False = inactive

compound	class
CN(C)c1ccc(N/C=C/C(=O)C(F)(F)F)cc1	False
COc1ccc2c(Cl)c(-c3nnco3)sc2c1	False
COC(=O)c1ccccc1SC1CC(=O)N(c2cccc(C)c2)C1=O (centres undefined)	False
NC(=O)CSc1oc(-c2cccs2)nc1S(=O)(=O)c1ccccc1	True
Cn1c(-c2sc3cc(C(F)(F)F)cnc3c2-c2ccccc2)n[nH]c1=S	True
Cc1ccc(OCC(=O)Nc2ccc(-c3nc4ncccc4o3)cc2)cc1	False
OCC1(CCc2ccccc2)CCN(Cc2ccc3nsnc3c2)CC1	True
Cc1cc(C)c2cc(CN(Cc3cccs3)Cc3nnnn3CC3CCCO3)c(=O)[nH]c2c1 (centres undefined)	False
Cc1ccc(-c2cc(C(=O)NCc3cn(C)nc3C)c3cc(Br)ccc3n2)cc1	False
Cn1c(=O)cc(SCC(=O)N2CCN(C(=O)c3ccco3)CC2)c2ccccc21	False
Nc1ccc(Nc2ccccc2)cc1	False
CCc1c(-c2ccccc2)nc(N)c(C#N)c1-c1cccs1	False
CC(=O)n1c(C=Nc2ccccc2)c(O)c2ccccc21	False
O=C(Oc1ccccc1)Oc1ccc2c(c1)oc(=O)c1ccccc12	False
Cc1cc(N2C(=O)C(=O)/C(=C(/O)c3ccc(Cl)cc3)C2c2cccc(Br)c2)no1 (centres undefined)	False
Cn1c(=O)cc(SCC(=O)N2CCCC2)c2cc(Cl)ccc21	True
CCn1c(=O)cc(SCC(=O)NCc2ccc3c(c2)OCO3)c2ccccc21	False
COC(=O)c1[nH]c2ccc(Br)cc2c1NC(=O)Oc1ccccc1	False
CCn1c(SCC(=O)Nc2cccc(F)c2)nnc1-c1cc2cc(Br)ccc2o1	False

* * *

test: StAR promoter reporter inhibitors, counter-screen for LRH-1 inverse agonist project, cell-based, luminescence, high throughput (AID 651611); details: StAR promoter luciferase reporter counterscreen, at 3.6 µM
The source made the active and inactive calls. No stated cut-off is given here; in the data, active means inhibition above about 28%; inactive means the rest.
Labels: Y = active, N = inactive

molecule	class
COc1cccc(-c2cnc3c(NC(C)=O)cc(-c4ccc(S(C)(=O)=O)cc4)cn23)c1	N
Cc1ccc(C(O)(C(=O)NN(C(=O)c2ccccc2)c2ccccc2)c2ccc(C)cc2)cc1	N
COc1c(/C=N/NC(N)=S)c(C)nn1-c1ccccc1	N
COc1cc2c(cc1OC)CN(C(=O)CN1CCN(S(=O)(=O)c3ccc(C)c(C)c3)CC1)CC2	N
CCOC(=O)N1CCN(C(=O)CSc2nc3c([nH]c4ccccc43)c(=O)n2CC)CC1	Y
COc1ccc(C[C@H](N)C(=O)N[C@H]2[C@@H](O)[C@H](n3cnc4c(N(C)C)ncnc43)O[C@@H]2CO)cc1	Y
COc1ccc(NC(=O)COC(=O)Cc2c[nH]c3ccccc23)cc1Cl	N
O=C1/C(=C\c2ccc(Cl)c(Cl)c2)CN(C(=O)CCN2CCOCC2)C/C1=C/c1ccc(Cl)c(Cl)c1	Y
COC(=O)c1ccc(CNC(=O)COC(=O)c2cc(Cl)nc(Cl)c2)cc1	N

* * *

target: Photoreceptor-specific nuclear receptor (Homo sapiens) (UniProt Q9Y5X4); experiment: NR2E3 agonist confirmation in cells, cell-based, luminescence, CHO-S two-hybrid (AID 624378); conditions: CHO-S mammalian two-hybrid NR2E3-NCOR, luciferase luminescence; at 3.98 µM;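 also: 0% = DMSO in NR2E3 cells and 100% = DMSO in cells lacking NR2E3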
Sequence (Q9Y5X4 whole entry, looked up): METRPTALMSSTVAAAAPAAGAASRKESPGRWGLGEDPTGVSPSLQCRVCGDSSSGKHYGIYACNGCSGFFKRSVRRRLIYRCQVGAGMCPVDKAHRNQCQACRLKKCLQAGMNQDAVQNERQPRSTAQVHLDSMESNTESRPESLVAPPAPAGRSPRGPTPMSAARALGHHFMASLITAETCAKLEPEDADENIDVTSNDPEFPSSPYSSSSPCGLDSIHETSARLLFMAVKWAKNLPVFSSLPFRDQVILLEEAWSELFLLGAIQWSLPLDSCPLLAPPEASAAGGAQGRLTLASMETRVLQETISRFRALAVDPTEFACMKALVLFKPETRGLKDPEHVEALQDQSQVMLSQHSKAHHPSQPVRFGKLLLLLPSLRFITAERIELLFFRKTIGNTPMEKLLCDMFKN
This is one part of the list. The source made the active and inactive calls.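 How the source made its calls: active means average inhibition above a cutoff equal to the mean inhibition of all tested compounds plus one SD (cut at about 70% in these data); inactive means the rest.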
Labels: t (active), f (inactive)

compound	class
O=C(CSc1nc(Nc2ccccc2)nc(N2CCOCC2)n1)Nc1cc(Cl)ccc1O	f
COCCNc1nc(-n2nc(C)cc2C)nc2sc3c(c12)CCCC3	f
CC(C)OCCCNc1ncnc2c1[nH]c1ccc(F)cc12	t
CCOC(=O)c1ccc(NC(=O)Cn2cnc3cc(C)c(C)cc32)cc1	t
Cc1ccsc1C(=O)OCC(=O)c1cc(C)n(CC2CCCO2)c1C (stereo unspecified)	t
CCCCCCCCn1c2c(c(=N)c3c1CCC3)CCCC2	t
Fc1ccc2[nH]c3c(N4CCSCC4)ncnc3c2c1	t
CCOC(=O)N1CCN(C(=O)c2ccc(S(=O)(=O)Nc3cccc(C(F)(F)F)c3)cc2)CC1	f
CN(C(=O)CN1CCN(c2cc(-c3ccc(OCc4ccccc4)cc3)ncn2)CC1)c1ccccc1	f
COc1ccc(CNc2ncnc3ccccc23)cc1	t
Cc1cc2nc(-c3ccc(Cl)cc3)c(Cc3cccc(F)c3)n2c(C)c1Br	f

* * *

test system: transactivating tegument protein VP16 (Human herpesvirus 1); assay: VP16 transactivation reporter inhibitors, counter-screen for SRC2 inhibitor project, cell-based, luminescence, single concentration (AID 652007); settings: cell-based VP16 transactivation luciferase reporter, at 8.9 µM
The source made the active and inactive calls. Cut-off read from the data, not from the text of the source: active = inhibition above about 36%; inactive = the rest.
Labels: yes (1) (active), no (0) (inactive)

molecule	class
CCCCC(=O)Nc1ccc(C)c(S(=O)(=O)N2CCCCCC2)c1	no (0)
O=c1c2ccccc2cnn1-c1nc2ccccc2[nH]1	yes (1)
NC(=S)N1OC[C@@H]2COc3ccc4ccccc4c3[C@@H]21	no (0)
CCN(CC)S(=O)(=O)c1cccc(-n2c(O)c(C=Nc3ccccc3C(=O)O)c3ccccc3c2=O)c1	no (0)
CCCCCCCN(c1ccccc1)[C@@H]1C[C@H]2CCCC(=O)N3CC[C@@H](C1)[C@@H]23	no (0)
Cc1ccc(C(=O)CN2C(=O)c3ccccc3S2(=O)=O)cc1	yes (1)
CC1=C(CO)C(=O)OC([C@@H](C)C2CC[C@H]3C4C[C@H]5O[C@]56[C@@H](O)C=CC(=O)[C@]6(C)C4CC[C@]23C)C1 (some centres undefined)	yes (1)
COc1ccc(CNc2ncc(-c3ccc(F)cc3)n2C)c2ccccc12	no (0)
CC(C)(C)OC(=O)NCCCCCc1cn([C@@H](CO)C(=O)NCCCCCCCCCCC(=O)N2CCN(C(=O)OC(C)(C)C)CC2)nn1	yes (1)
